# System Name: ligand binding domain of human RORγ (A262-S507) (Homo sapiens, UniProt P51449)
# Construct: made in house; host or cells: E. coli
# Measurement Description: General RORγ SPA binding assay (competition with [3H]25-hydroxycholesterol)
# Protocol Conditions: RORγ SPA binding assay, inhibition of [3H]25-hydroxycholesterol binding; read-out: IC50
pIC50: −log10 of the molar value.
Recorded Endpoint: pIC50

Worked examples, 5 molecules total:
- Molecule: "Cc1ncc(/C=N/Oc2cccc(C(F)(F)F)c2)c(C2CCN(C(=O)Cc3c(F)cccc3F)CC2)n1"
  pIC50: 8.01
- Molecule: "Cc1nc(N)nc(C2CCN(C(=O)Nc3c(F)cccc3F)CC2)c1C(O)COc1ccnc(C(F)(F)F)n1 (stereo not shown)"
  pIC50: 7.77
- Molecule: "Cc1cc(C)cc(CNC(=O)c2cnc(C)nc2C2CCN(C(=O)Cc3ccccc3C(F)(F)F)CC2)c1"
  pIC50: 8.05
- Molecule: "Cc1ncc(C(F)COc2cccc(C(F)(F)F)n2)c(C2CCN(C(=O)Nc3c(F)cccc3F)CC2)n1 (stereo not shown)"
  pIC50: 8.15
- Molecule: "C/C(=N\\Oc1cccc(C(F)(F)F)n1)c1cnc(C)nc1C1CCN(C(=O)Cc2c(F)cccc2F)CC1"
  pIC50: 7.86

[1] Cc1ncc(C(=O)NCc2cccc(C(F)(F)F)c2)c(C2CCN(C(=O)Cc3c(F)cccc3F)CC2)n1
[2] Nc1ncc(C(=O)COc2ccnc(C(F)(F)F)n2)c(C2CCN(C(=O)Nc3c(F)cccc3F)CC2)n1
QUERY: Pick one: 1 or 2 . Which has the bigger pIC50 number? Mark your selection by writing its label.
RESULT: 1
(1: 8.21, 2: 7.91)

----------
# System Name: ligand binding domain of human RORγ (A262-S507) (Homo sapiens)
# Construct: made in house; host or cells: E. coli
# Measurement Description: General RORγ SPA binding assay (competition with [3H]25-hydroxycholesterol)
# Protocol Conditions: RORγ SPA binding assay, inhibition of [3H]25-hydroxycholesterol binding; read-out: IC50
pIC50: −log10 of the molar value.
Recorded Endpoint: pIC50

Worked examples, 2 molecules total:
- Molecule: "Cc1ncc(C(N)COc2cccc(C(F)(F)F)n2)c(C2CCN(C(=O)Nc3c(F)cccc3F)CC2)n1 (stereo not shown)"
  System Name: "ligand binding domain of human RORγ (A262-S507) (Homo sapiens)"
  pIC50: 7.91
- Molecule: "Nc1ncc(C(O)COc2ccnc(C(F)(F)F)n2)c(C2CCN(C(=O)Oc3c(F)cccc3F)CC2)n1 (stereo not shown)"
  System Name: "ligand binding domain of human RORγ (A262-S507) (Homo sapiens)"
  pIC50: 8.17

[A] Cc1cc(C)cc(CNC(=O)c2cnc(C)nc2C2CCN(C(=O)Nc3c(F)cccc3F)CC2)c1
[B] CN(C)c1ncc(C(=O)NCc2cccc(Cl)c2)c(C2CCN(C(=O)Cc3c(F)cccc3F)CC2)n1
QUERY: Hello, I am sorting some records. Could you say if A or B has the smaller pIC50 value? Mark your selection by writing its label.
RESULT: A
(A: 7.92, B: 8.27)

[1] COC(=O)C(C)(CNc1ccnc(C(F)(F)F)n1)c1cnc(C)nc1C1CCN(C(=O)Cc2c(F)cccc2F)CC1 (stereo not shown)
[2] CC(O)(COc1ccnc(C(F)(F)F)n1)c1cnc(NC2CC2)nc1C1CCN(C(=O)Nc2c(F)cccc2F)CC1 (stereo not shown)
QUERY: Hello, I am sorting some records. Could you say if 1 or 2 has the smaller pIC50 value? Mark your selection by writing its label.
RESULT: 1
(1: 6.71, 2: 7.82)

----------
# System Name: ligand binding domain of human RORγ (A262-S507) (Homo sapiens, UniProt P51449)
# Construct: made in house; host or cells: E. coli
# Measurement Description: General RORγ SPA binding assay (competition with [3H]25-hydroxycholesterol)
# Protocol Conditions: RORγ SPA binding assay, inhibition of [3H]25-hydroxycholesterol binding; read-out: IC50
Recorded Endpoint: IC50 (nM)

Worked examples, 5 molecules total:
- Molecule: "Nc1ncc(C(O)COc2cccc(C(F)(F)F)n2)c(C2CCN(C(=O)Nc3c(F)cccc3F)CC2)n1 (stereo not drawn) [Compound N3]"
  Reading Unit: "nM"
  IC50: 2.3
- Molecule: "Cc1nc(C)c(-c2nc(-c3cccc(C(F)(F)F)c3)no2)c(C2CCN(C(=O)Nc3c(F)cccc3C(F)(F)F)CC2)n1 [Compound C64]"
  Reading Unit: "nM"
  IC50: 183
- Molecule: "Cc1nc(C)c(-c2nc(-c3cccc(C(F)(F)F)c3)no2)c(C2CCN(C(=O)Cc3c(F)cccc3F)CC2)n1 [Compound C1]"
  Reading Unit: "nM"
  IC50: 114
- Molecule: "Cc1cc(C)cc(CNC(=O)c2cnc(C)nc2C2CCN(C(=O)Cc3c(F)cccc3Cl)CC2)c1 [Compound A3]"
  Reading Unit: "nM"
  IC50: 7.2
- Molecule: "CSc1ncc(/C(C)=N/Oc2ccnc(Cl)c2)c(C2CCN(C(=O)Nc3c(F)cccc3F)CC2)n1 [Compound B58]"
  Reading Unit: "nM"
  IC50: 4090

[a] Cc1nc(N)nc(C2CCN(C(=O)Nc3ccccc3Cl)CC2)c1-c1nnc(-c2ccnc(C(F)(F)F)n2)o1 [Compound C71]
[b] Cc1ncc(C(=O)NOc2cccc(C(F)(F)F)c2)c(C2CCN(C(=O)Cc3c(F)cccc3F)CC2)n1 [Compound H1]
QUERY: Hello, I am sorting some records. Could you say if a or b has the smaller IC50 value? Mark your selection by writing its label.
RESULT: a
(a: 30.2 nM, b: 327 nM)

[P] C/C(=N\Oc1cc(F)nc(F)c1)c1cnc(N)nc1C1CCN(C(=O)Nc2c(F)cccc2F)CC1 [Compound B56]
[Q] Cc1nc(C)c(-c2nnc(-c3ccnc(C(F)(F)F)n3)o2)c(C2CCN(C(=O)c3c(F)cccc3Cl)CC2)n1 [Compound C27]
QUERY: Pick one: P or Q . Which has the bigger IC50 number? Mark your selection by writing its label.
RESULT: Q

[1] C/C(=N\Oc1cc(F)cc(Cl)c1)c1cnc(C)nc1C1CCN(C(=O)Cc2c(F)cccc2F)CC1 [Compound B12]
[2] Cc1ncc(C(=O)NOc2ccccc2)c(C2CCN(C(=O)Cc3c(F)cccc3F)CC2)n1 [Compound H7]
[3] CNc1ncc(C(C)(O)COc2ccnc(C(F)(F)F)n2)c(C2CCN(C(=O)Nc3c(F)cccc3F)CC2)n1 (stereo not drawn) [Compound D36]
QUERY: # desc sort on IC50 across 3 molecules List the labels according to the requested ordering.
RESULT: 2, 3, 1

[1] Cc1ncc(C(=O)NCc2cccc(OC(F)(F)F)c2)c(C2CCN(C(=O)Cc3c(F)cccc3F)CC2)n1 [Compound A53]
[2] Nc1ncc(C(=O)COc2ccnc(C(F)(F)F)n2)c(C2CCN(C(=O)c3c(F)cccc3F)CC2)n1 [Compound M13]
QUERY: Pick one: 1 or 2 . Which has the bigger IC50 number? Mark your selection by writing its label.
RESULT: 2

----------
# System Name: ligand binding domain of human RORγ (A262-S507) (Homo sapiens, UniProt P51449)
# Construct: made in house; host or cells: E. coli
# Sequence (P51449 262-507): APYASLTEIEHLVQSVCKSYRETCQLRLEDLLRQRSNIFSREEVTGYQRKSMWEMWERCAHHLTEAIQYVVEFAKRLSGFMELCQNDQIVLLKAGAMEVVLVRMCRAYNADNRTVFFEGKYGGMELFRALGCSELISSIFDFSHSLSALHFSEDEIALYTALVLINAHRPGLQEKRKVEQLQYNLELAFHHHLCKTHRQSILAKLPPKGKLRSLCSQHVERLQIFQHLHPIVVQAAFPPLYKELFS
# Measurement Description: General RORγ SPA binding assay (competition with [3H]25-hydroxycholesterol)
# Protocol Conditions: RORγ SPA binding assay, inhibition of [3H]25-hydroxycholesterol binding; read-out: IC50
pIC50: −log10 of the molar value.
Recorded Endpoint: pIC50

- Molecule: "C/C(=N\\Oc1cccc(C(F)(F)F)c1)c1cnc(C)nc1C1CCN(C(=O)Nc2c(F)cccc2F)CC1 [Compound B43]"
  pIC50: 7.87
- Molecule: "Cc1nc(N)nc(C2CCN(C(=O)Oc3cccc(F)c3)CC2)c1-c1nnc(-c2ccnc(C(F)(F)F)n2)o1 [Compound C55]"
  pIC50: 7.72
- Molecule: "Cc1cc(C)cc(CNCc2cnc(C)nc2C2CCN(C(=O)Cc3c(F)cccc3F)CC2)c1 [Compound F6]"
  pIC50: 7.35
- Molecule: "Nc1ncc(C(N)COc2cccc(C(F)(F)F)n2)c(C2CCN(C(=O)Oc3ccccc3F)CC2)n1 (stereo not shown) [Compound N29]"
  pIC50: 5.00

[a] Cc1nc(N)nc(C2CCN(C(=O)Nc3c(F)cccc3F)CC2)c1-c1ncc(-c2ccnc(C(F)(F)F)n2)o1 [Compound C69]
[b] Cc1ncc(C2(COc3cccc(C(F)(F)F)n3)CNC(=O)O2)c(C2CCN(C(=O)Nc3c(F)cccc3F)CC2)n1 (stereo not shown) [Compound N52]
[c] Cc1cc(C)cc(CNC(=O)c2cnc(C)nc2C2CCN(CCc3ccccc3)CC2)c1 [Compound A101]
QUERY: Order the records, beginning with the lowest pIC50 and ending with the highest. List the labels according to the requested ordering.
RESULT: c, a, b
(c: 6.20, a: 7.51, b: 7.86)
